Literature log10 of Ki values, system: Estrogen receptor (Homo sapiens, UniProt P03372).
Target: Estrogen receptor (Homo sapiens, UniProt P03372)
Sequence (P03372 whole entry): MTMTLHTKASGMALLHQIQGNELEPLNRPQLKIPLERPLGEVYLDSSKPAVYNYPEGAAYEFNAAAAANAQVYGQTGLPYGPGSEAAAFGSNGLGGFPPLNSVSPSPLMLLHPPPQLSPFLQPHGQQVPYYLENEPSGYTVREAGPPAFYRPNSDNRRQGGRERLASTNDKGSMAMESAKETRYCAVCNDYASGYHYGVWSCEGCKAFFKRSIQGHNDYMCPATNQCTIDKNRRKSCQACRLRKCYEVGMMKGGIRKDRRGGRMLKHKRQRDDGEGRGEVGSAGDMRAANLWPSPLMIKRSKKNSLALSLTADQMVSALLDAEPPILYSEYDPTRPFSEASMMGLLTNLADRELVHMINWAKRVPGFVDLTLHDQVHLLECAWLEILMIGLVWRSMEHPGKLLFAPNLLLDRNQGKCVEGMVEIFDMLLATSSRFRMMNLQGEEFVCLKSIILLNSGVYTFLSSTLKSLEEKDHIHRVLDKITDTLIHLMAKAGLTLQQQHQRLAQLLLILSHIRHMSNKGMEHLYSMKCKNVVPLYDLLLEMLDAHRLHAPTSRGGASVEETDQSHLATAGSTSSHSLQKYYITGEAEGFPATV
Note: values are log10 of Ki expressed in nM.

Query: Consider the compound "Oc1ccc([C@H]2Oc3ccccc3[C@H]3CCC[C@H]32)cc1" tested on Estrogen receptor (Homo sapiens, UniProt P03372); state its log10 of Ki.
Response: 1.60

Query: Consider the compound "CCCCCCCCc1cc2cc(O)ccc2c(Oc2ccc(/C=C/C(=O)O)cc2)c1-c1ccccc1" tested on Estrogen receptor (Homo sapiens, UniProt P03372); state its log10 of Ki.
Response: 1.74

Query: Consider the compound O=C(CCCCCCC(=O)Nc1ccc(C2=C(c3ccc(O)cc3)C3CC(S(=O)(=O)Oc4ccc5ccccc5c4)C2O3)cc1)NO (stereo not drawn) tested on Estrogen receptor (Homo sapiens, UniProt P03372); state its log10 of Ki.
Response: 2.49

Query: Consider the compound CN1CCN(c2nc(NCCCc3ccccc3)nc(NC3CCc4cc(O)ccc4C3)n2)CC1 (stereo not drawn) tested on Estrogen receptor (Homo sapiens, UniProt P03372); state its log10 of Ki.
Response: 3.00

Query: Consider the compound CCN(c1ccc(OC)cc1)S(=O)(=O)C1CC2OC1C(c1ccc(O)cc1)=C2c1ccc(O)cc1 (stereo not drawn) tested on Estrogen receptor (Homo sapiens, UniProt P03372); state its log10 of Ki.
Response: 2.28

Query: Consider the compound "CN(CCCc1ccc(F)c(F)c1)c1nc(NCCc2ccc(O)cc2)nc(N2CCNCC2)n1" tested on Estrogen receptor (Homo sapiens, UniProt P03372); state its log10 of Ki.
Response: 2.30

Query: Consider the compound "O=C(/C=C/c1ccc(C(=C2C3CC4CC(C3)CC2C4)c2ccc(O)cc2)cc1)N(CCO)CCO" tested on Estrogen receptor (Homo sapiens, UniProt P03372); state its log10 of Ki.
Response: -0.89

Query: Consider the compound Cc1cccc(OS(=O)(=O)C2CC3OC2C(c2ccc(NC(=O)CCCCCCC(=O)NO)cc2)=C3c2ccc(O)cc2)c1 (racemic) tested on Estrogen receptor (Homo sapiens, UniProt P03372); state its log10 of Ki.
Response: 3.65

Query: Consider the compound "CN(CCCC1CCCCC1)c1nc(NCCc2ccc(O)cc2)nc(N2CCNCC2)n1" tested on Estrogen receptor (Homo sapiens, UniProt P03372); state its log10 of Ki.
Response: 3.15

Query: Consider the compound "Oc1ccc(CCNc2nc(NCCCc3ccc(Cl)cc3)nc(N3CCNCC3)n2)cc1" tested on Estrogen receptor (Homo sapiens, UniProt P03372); state its log10 of Ki.
Response: 2.30

Query: Consider the compound "CN(CCCc1ccc(Cl)cc1)c1nc(NCCc2ccc(O)cc2)nc(N2CCNCC2)n1" tested on Estrogen receptor (Homo sapiens, UniProt P03372); state its log10 of Ki.
Response: 2.48

Query: Consider the compound "O=C(/C=C/c1ccc(C(=C2C3CC4CC(C3)CC2C4)c2ccc(O)cc2)cc1)NCCCCCO" tested on Estrogen receptor (Homo sapiens, UniProt P03372); state its log10 of Ki.
Response: -0.19

Query: Consider the compound "CN(CCCc1ccc(Cl)cc1Cl)c1nc(NCCc2ccc(O)cc2)nc(N2CCNCC2)n1" tested on Estrogen receptor (Homo sapiens, UniProt P03372); state its log10 of Ki.
Response: 2.10

Query: Consider the compound "Cl.Oc1ccc2c3c(ccc2c1)-c1cc(F)cc(F)c1O[C@@H]3c1ccc(OCCN2CCCCC2)cc1" tested on Estrogen receptor (Homo sapiens, UniProt P03372); state its log10 of Ki.
Response: -0.52

Query: Consider the compound "CCCCc1cc2ccccc2c(Oc2ccc(/C=C/C(=O)O)cc2)c1-c1ccc(F)cc1" tested on Estrogen receptor (Homo sapiens, UniProt P03372); state its log10 of Ki.
Response: 2.86

* * *

Literature pKi values, system: Estrogen receptor (Homo sapiens).
pKi: −log10 of the molar value.

Query: Consider the compound "CN(CCCc1ccc(Cl)cc1)c1nc(NCCc2ccc(O)cc2)nc(N2CCN(C(=O)N3CCOCC3)CC2)n1" tested on Estrogen receptor (Homo sapiens); state its pKi.
Response: 5.63

Query: Consider the compound "CN1CCN(c2nc(NCCCc3ccccc3)nc(N3CCc4cc(O)ccc4C3)n2)CC1" tested on Estrogen receptor (Homo sapiens); state its pKi.
Response: < 5.00

Query: Consider the compound "CC(C)(C(=O)Nc1nncs1)[C@@H]1c2ccc(-c3ccc(C(=O)N4CCOCC4)cc3)nc2Oc2c(F)cccc21" tested on Estrogen receptor (Homo sapiens); state its pKi.
Response: < 4.12

Query: Consider the compound "CC(=O)c1ccc2c(c1)c(-c1ccc(OCCN3CCCCC3)cc1)cc1cc(O)cc(C)c12" tested on Estrogen receptor (Homo sapiens); state its pKi.
Response: < 6.00

Query: Consider the compound "CCN(CC)C(=O)N1CCN(c2nc(NCCc3ccc(O)cc3)nc(N(C)CCCc3ccc(Cl)cc3)n2)CC1" tested on Estrogen receptor (Homo sapiens); state its pKi.
Response: < 5.00

Query: Consider the compound C#C[C@]1(O)CC[C@H]2[C@@H]3CCC4=CC(=O)CCC4=C3[C@@H](c3ccc(N(C)C(=O)CNC(=O)O[C@@H]4C[C@@H]5CC(O)CC[C@]5(C)[C@H]5C[C@H](O)[C@]6(C)[C@@H]([C@H](C)CCC(=O)O)CC[C@H]6[C@H]45)cc3)C[C@@]21C (stereo partly specified) tested on Estrogen receptor (Homo sapiens); state its pKi.
Response: 7.03

* * *

Literature pKi values, system: Estrogen receptor (Homo sapiens).
Biological target: Estrogen receptor (Homo sapiens)
Sequence (P03372 whole entry): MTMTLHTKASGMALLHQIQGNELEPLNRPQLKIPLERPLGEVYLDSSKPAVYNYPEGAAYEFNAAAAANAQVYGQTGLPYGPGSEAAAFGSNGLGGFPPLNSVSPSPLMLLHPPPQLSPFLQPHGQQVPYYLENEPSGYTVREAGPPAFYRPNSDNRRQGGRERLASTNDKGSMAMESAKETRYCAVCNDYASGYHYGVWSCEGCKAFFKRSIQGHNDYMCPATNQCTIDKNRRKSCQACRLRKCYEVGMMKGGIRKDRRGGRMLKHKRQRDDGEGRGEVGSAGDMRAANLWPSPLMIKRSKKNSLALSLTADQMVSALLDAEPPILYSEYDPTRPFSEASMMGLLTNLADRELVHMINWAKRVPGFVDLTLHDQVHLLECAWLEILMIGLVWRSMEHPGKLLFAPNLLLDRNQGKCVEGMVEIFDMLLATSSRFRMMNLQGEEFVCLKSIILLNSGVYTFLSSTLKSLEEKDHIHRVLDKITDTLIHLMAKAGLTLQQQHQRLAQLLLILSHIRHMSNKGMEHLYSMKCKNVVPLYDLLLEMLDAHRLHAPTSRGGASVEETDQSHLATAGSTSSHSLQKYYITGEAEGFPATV
pKi: −log10 of the molar value.

Query: Look up and state reported pKi for CN1CCN(c2nc(NCCCc3ccccc3)nc(N3CCCC(c4ccc(O)cc4)C3)n2)CC1 (stereo not drawn)
Response: < 5.00

Query: Look up and state reported pKi for COc1ccccc1OS(=O)(=O)C1CC2OC1C(c1ccc(NC(=O)CCCCCCC(=O)NO)cc1)=C2c1ccc(O)cc1 (racemic)
Response: < 5.30

Query: Look up and state reported pKi for CC12CC(C)(C(=O)Nc3nccs3)C(c3ccccc31)c1ccccc12 (stereo in doubt; 17a)
Response: < 5.30
